src = patent US8609173B2

assay name: Solubility in buffers and food grade solvents (Table 14)
Assay type: physicochemical
run parameters: phosphate buffer, pH 7.1, aqueous buffer
assay metric: solubility (µM)
Give bare numbers, in µM.

-- ask Quick one: solubility of CCCNC(=O)C(C)(C)COc1cccc2c1C(N)=NS(=O)(=O)N2 ?
-- reply 1700

* * *

assay name: Solubility in buffers and food grade solvents (Table 14)
Assay type: physicochemical
run parameters: glycerol, organic solvent or mixture
Experimental: Solubility of 3-(4-amino-2,2-dioxide-1H-benzo[c][1,2,6]thiadiazin-5-yloxy)-2′,2′-dimethyl-N-propylpropanamide Various solutions of 3-(4-amino-2,2-dioxide-1H-benzo[c][1,2,6]thiadiazin-5-yloxy)-2′,2′-dimethyl-N-propylpropanamide 3-(4-amino-2,2-dioxide-1H-benzo[c][1,2,6]thiadiazin-5-yloxy)-2′,2′-dimethyl-N-propylpropanamide were prepared as indicated below.
assay metric: solubility
Number plus unit, in that order.

-- ask Quick one: solubility of CCCNC(=O)C(C)(C)COc1cccc2c1C(N)=NS(=O)(=O)N2 ?
-- reply 7.9 mM
